Data origin: patent US20250171542A1

Target: T1, human PD-L1-His (Sino Biological, Cat #10084-H08H) (human, UniProt Q9NZQ7 19-238)
T1 construct: Bought protein; also called human PD-L1 ECD-His; recombinant human PD-L1-His protein; not shown: His tag
T1 sequence (Q9NZQ7 19-238): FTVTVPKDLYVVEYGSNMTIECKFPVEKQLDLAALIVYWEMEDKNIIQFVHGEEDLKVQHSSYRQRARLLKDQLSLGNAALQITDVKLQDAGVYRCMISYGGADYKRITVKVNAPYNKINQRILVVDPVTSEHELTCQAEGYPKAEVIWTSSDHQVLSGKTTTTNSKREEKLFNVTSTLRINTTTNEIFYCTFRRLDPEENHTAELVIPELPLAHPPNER
Test: BLI (Gator), antibody on HFC probe, human PD-L1-His in solution
experimental_readout: koff (s⁻¹)
Give the value in s⁻¹ but do not write s⁻¹ after it.

Known koff results, listed for orientation:
[
  {
    "binder": "56E5 (antibody, human IgG1, V domains shown) VH: QEQLEESGGGLVQPEGSLTLTCTASGFSFSGDYYMSWVRQAPGKGLEWIASIYTGSLNTYYATWAKGRFTISLTSSTTVTLQMTSLTAADTATYFCARRHKNADYGHFDLWGPGTLVTVSS VL: YDMTQTPGSVEVAVGGTVTIKCQASQSINDRLAWYQQTPGQPPKLLIYGASTLASGVPSRFKGSGSGTEFTLTISDLECADAATYYCQQGWTVSSLDNAFGGGTEVVAK",
    "koff [s⁻¹]": 0.00056
  },
  {
    "binder": "33H7 (antibody, human IgG1, V domains shown) VH: QEQLVESGGGLVQPEGSLTVTCTASGFDLSRYFYMSWVRQAPGKGLEWIASISTGSDITDYASWAKGRFTISKTSSTTVTLQMTTLTAADTAIYFCARWTSGGGGFGLWGPGTLVTVSS VL: QVLTQTASPVSAAVGGTVTLNCQSSQSIYNNYLSWYQQRAGQPPKLLIYSTATLASGVPSRFKGSGSGTQFTLTISEIQCEDAATYYCQGYYSGYIWTFGGGTEVVVK",
    "koff [s⁻¹]": 0.000329
  },
  {
    "binder": "74F4 (antibody, human IgG1, V domains shown) VH: QEQLEESGGGLVQPEGSLTLTCTASGFSFSGDYYMSWVRQAPGKGLEWIASIYTGSLNTYYATWAKGRFTISLTSSTTVTLQMTSLTAADTATYFCARRNKNADYGHFDLWGPGTLVTVSS VL: YDMTQTPASVEVAVGGTVTIKCQASQSINDRLAWYQQSPGQPPKLLIYGASTLASGVPSRFKGSGSGTDFTLTISDLECADAATYYCQQGWTVSSLDNAFGGGTEVVAK",
    "koff [s⁻¹]": 0.000238
  },
  {
    "binder": "32E2 (antibody, human IgG1, V domains shown) VH: QEQLEESGGDLVKPEGSLTLTCTASGFSFSSSYYMSWVRQAPGMGLEWIASISGGVTDNAYYASWAKGRFTVSKTSSTTVTLQLTSLTAADTATYFCARDSSSGYFFLLWGPGTLVTVSS VL: LVMTQTPSSVSAAVGGTVTINCQASQNIYSNLAWYQQKPGQRPKLLIFGASNLRSGVPSRFKGSGSGTEYTLTISDLECADAATYYCQEGYSIGNVDNPFGGGTEVVVK",
    "koff [s⁻¹]": 0.000113
  }
]

Next up:
Output koff of 57B10 (antibody, human IgG1, V domains shown) VH: QEQLEESGGGLVQPEGSLTLTCTASGFSFSDDYYMSWVRQAPGKGLEWIASIYTGSLNTYYATWAKGRFTISLTSSTTVTLQMTSLTAADTATYFCARRNKNADWGHFDLWGPGTLVTVSS VL: YDMTQTPASVEVAVGGTVTIKCQASQSISTALAWYQQKPGQPPKLLIYAASTLASGVPSRFRGSGSGTDFTLTISDLECADAATYYCQQGWTVSSLDNAFGGGTEVVAM
7.7e-05
